These entries and their values trace back to the Human Domainome abundance scans (Beltran et al. 2025).

B1: Mineralocorticoid receptor, residues 600 to 675; numbered along this chain, P08235 (parent)
chain: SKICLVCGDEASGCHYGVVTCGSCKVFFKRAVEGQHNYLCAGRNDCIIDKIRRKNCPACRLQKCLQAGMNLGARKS

Variants of: B1
Test: abundance fitness (aPCA) (normalised: wild type 0, dead -1); higher = more abundant; growth selection in yeast, the domain comes from the species named
Settings: Homo sapiens
The variants listed here are annotated with their abundance fitness.
Just the number, please, no unit attached.

D9E; -0.096
L39G; -0.045
P57Q; -0.09
L39E; -0.047
F28H; -0.445

For `H36K` the variant record lists abundance fitness as -0.138

For `K54N` the variant record lists abundance fitness as 0.013

For `I51S` the variant record lists abundance fitness as 0.003

For `R43V` the variant record lists abundance fitness as -0.038

For `N37E` the variant record lists abundance fitness as 0.068

For `R53Y` the variant record lists abundance fitness as -0.261

For `V32A` the variant record lists abundance fitness as 0.023

For `L39K` the variant record lists abundance fitness as -0.009

For `R43H` the variant record lists abundance fitness as -0.029

For `R53L` the variant record lists abundance fitness as -0.098

For `C40F` the variant record lists abundance fitness as -1.13

For `D49E` the variant record lists abundance fitness as -0.04
